- Test system: Canis familiaris
- test.summary: In vivo antagonism of cisplatin-induced emesis in dog measured as percentage protection for twice the dose of 6 mg/kg in 2 dogs
- Type: functional, Canis lupus familiaris
This listing pairs molecules with measured Protection.

smiles.entry: CCN(CC)CC/N=C(\NOC)c1cc(Cl)c(N)cc1OC
target.of.assay: Canis familiaris
Protection / %: 34
//
smiles.entry: C=CCOc1cc(N)c(Cl)cc1C(=O)NCCN(CC)CC
target.of.assay: Canis familiaris
Protection / %: 90
//
smiles.entry: C#CCOc1cc(N)c(Cl)cc1C(=O)NCCN(CC)CC
target.of.assay: Canis familiaris
Protection / %: 73
//
smiles.entry: CCN(CC)CCNC(=O)c1cc(Cl)c(N)cc1OC/C(C)=N/OC
target.of.assay: Canis familiaris
Protection / %: 71
//
smiles.entry: CCN(CC)CCNC(=O)c1cc(Cl)c(N)cc1OCC(C)=O
target.of.assay: Canis familiaris
Protection / %: 96
//
smiles.entry: CCCOc1cc(N)c(Cl)cc1C(=O)NCCN(CC)CC
target.of.assay: Canis familiaris
Protection / %: 40
//
smiles.entry: CCN(CC)CCNC(=O)c1cc(Cl)c(N)cc1O
target.of.assay: Canis familiaris
Protection / %: 84

###

- target.of.assay: D(2) dopamine receptor (Rattus norvegicus) (UniProt P61169)
- Sequence (P61169 whole entry): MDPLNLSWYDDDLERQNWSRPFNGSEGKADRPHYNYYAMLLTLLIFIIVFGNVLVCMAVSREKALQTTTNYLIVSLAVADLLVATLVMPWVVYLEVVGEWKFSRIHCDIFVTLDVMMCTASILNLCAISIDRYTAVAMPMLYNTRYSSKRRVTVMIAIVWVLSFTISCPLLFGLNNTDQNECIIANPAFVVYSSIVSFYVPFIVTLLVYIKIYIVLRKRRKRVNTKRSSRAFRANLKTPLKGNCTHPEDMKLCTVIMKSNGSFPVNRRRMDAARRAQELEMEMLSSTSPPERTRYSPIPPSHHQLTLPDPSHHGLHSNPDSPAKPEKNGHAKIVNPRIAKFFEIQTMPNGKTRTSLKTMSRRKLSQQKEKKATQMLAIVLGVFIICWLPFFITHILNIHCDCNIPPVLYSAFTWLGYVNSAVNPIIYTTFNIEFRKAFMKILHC
- test.summary: In vivo antagonistic activity against dopamine D2 receptor was measured as catalepsy in rat when administered subcutaneously
- Format: functional, organism-based
Recorded ED50 for the following compounds

compound: CCN(CC)CCNC(=O)c1cc(Cl)c(N)cc1OC1CCCC[C@@H]1OC (stereo partly specified)
target.of.assay: D(2) dopamine receptor (Rattus norvegicus) (UniProt P61169)
ED50: > 40 mg/kg

compound: CCN1CCCNC(=O)c2cc(Cl)c(N)cc2OCCOCC1
target.of.assay: D(2) dopamine receptor (Rattus norvegicus) (UniProt P61169)
ED50: > 40 mg/kg

compound: CCN(CC)CCNC(=O)c1cc(Cl)c(N)cc1OCC1CCCO1 (stereo unspecified)
target.of.assay: D(2) dopamine receptor (Rattus norvegicus) (UniProt P61169)
ED50: > 40 mg/kg

compound: CCN(CC)CCNC(=O)c1cc(Cl)c(N)cc1OCC1OCCO1
target.of.assay: D(2) dopamine receptor (Rattus norvegicus) (UniProt P61169)
ED50: > 40 mg/kg

compound: CCN(CC)CCNC(=O)c1cc(Cl)c(N)cc1OC1CCCC[C@H]1O (stereo partly specified)
target.of.assay: D(2) dopamine receptor (Rattus norvegicus) (UniProt P61169)
ED50: > 40 mg/kg

compound: CCN(CC)CCNC(=O)c1cc(Cl)c(N)cc1OCCC(C)O (stereo unspecified)
target.of.assay: D(2) dopamine receptor (Rattus norvegicus) (UniProt P61169)
ED50: > 40 mg/kg

compound: CCN(CC)CCNC(=O)c1cc(Cl)c(N)cc1OCC(=O)OC
target.of.assay: D(2) dopamine receptor (Rattus norvegicus) (UniProt P61169)
ED50: > 40 mg/kg

compound: CCN(CC)CCNC(=O)c1cc(Cl)c(N)cc1OC(C)C#N (stereo unspecified)
target.of.assay: D(2) dopamine receptor (Rattus norvegicus) (UniProt P61169)
ED50: > 40 mg/kg

compound: C=CCN1CCCC1CNC(=O)c1cc2nn[nH]c2cc1OC(C)C(C)=O (stereo unspecified)
target.of.assay: D(2) dopamine receptor (Rattus norvegicus) (UniProt P61169)
ED50: > 40 mg/kg

compound: CCN(CC)CCNC(=O)c1cc(Cl)c(N)cc1OC/C(C)=N/O
target.of.assay: D(2) dopamine receptor (Rattus norvegicus) (UniProt P61169)
ED50: > 40 mg/kg

compound: CCN(CC)CCN1C(=O)c2cc(Cl)c(NC=O)cc2OC(C)=C1C
target.of.assay: D(2) dopamine receptor (Rattus norvegicus) (UniProt P61169)
ED50: > 40 mg/kg

###

- target.of.assay: D(2) dopamine receptor (Canis lupus familiaris) (UniProt Q9GJU1)
- Sequence (Q9GJU1 whole entry): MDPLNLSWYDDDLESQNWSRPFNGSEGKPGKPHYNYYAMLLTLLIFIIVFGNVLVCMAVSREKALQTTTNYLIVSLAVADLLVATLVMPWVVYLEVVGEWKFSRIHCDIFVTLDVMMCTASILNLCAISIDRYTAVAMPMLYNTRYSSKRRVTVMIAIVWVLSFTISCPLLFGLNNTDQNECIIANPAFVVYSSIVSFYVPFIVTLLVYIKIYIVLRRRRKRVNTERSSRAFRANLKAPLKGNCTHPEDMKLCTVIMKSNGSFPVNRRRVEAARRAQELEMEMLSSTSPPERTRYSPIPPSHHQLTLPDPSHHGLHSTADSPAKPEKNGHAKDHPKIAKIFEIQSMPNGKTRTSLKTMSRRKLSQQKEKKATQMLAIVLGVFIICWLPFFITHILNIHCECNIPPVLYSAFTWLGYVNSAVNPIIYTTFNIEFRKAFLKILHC
- test.summary: In vivo antagonism activity against dopamine D2 receptor was measured as emesis in dog when administered subcutaneously
- Format: functional, organism-based

compound: CCN(CC)CCNC(=O)c1cc(Cl)c(N)cc1OCC(=O)c1ccccc1
ED50: > 3 mg/kg

compound: CCN(CC)CCN1C(=O)c2cc(Cl)c(N)cc2OC(C)=C1C
ED50: > 3 mg/kg

compound: CCN(CC)CCNC(=O)c1cc(Cl)c(N)cc1OCCC(C)OC (configuration not stated)
ED50: > 3 mg/kg

compound: CCN(CC)CCNC(=O)c1cc(Cl)c(N)cc1OCC1=NCCN1
ED50: > 3 mg/kg

compound: C#CCOc1cc(N)c(Cl)cc1C(=O)NCCN(CC)CC
ED50: > 1 mg/kg

compound: CCN(CC)CCNC(=O)c1cc(Cl)c(N)cc1OCC1(C)CO1 (configuration not stated)
ED50: > 3 mg/kg

compound: C/C=C/COc1cc(N)c(Cl)cc1C(=O)NCCN(CC)CC
ED50: > 3 mg/kg

compound: CCN(CC)CCNC(=O)c1cc(Cl)c(N)cc1OCc1ccccc1
ED50: > 1 mg/kg

compound: CCC(Oc1cc(N)c(Cl)cc1C(=O)NCCN(CC)CC)C(C)=O (configuration not stated)
ED50: > 3 mg/kg

compound: CCN(CC)CCNC(=O)c1cc(Cl)c(N)cc1OCC1CO1 (configuration not stated)
ED50: > 3 mg/kg

compound: CCN(CC)CCNC(=O)c1cc(Cl)c(N)cc1OCCOC
ED50: > 3 mg/kg

compound: C=CCN1CCCC1CNC(=O)c1cc2nn[nH]c2cc1O (configuration not stated)
ED50: > 3 mg/kg

###

- target.of.assay: D(2) dopamine receptor (Rattus norvegicus)
- test.summary: In vivo antagonism activity against D2 receptor was measured as stereotypy in rat when administered subcutaneously
- Format: functional, organism-based

molecule: C=CCN1CCCC1CNC(=O)c1cc2nn[nH]c2cc1O (stereo not drawn)
target.of.assay: D(2) dopamine receptor (Rattus norvegicus)
ED50: > 40 mg/kg
--
molecule: CCN(CC)CCNC(=O)c1cc(Cl)c(N)cc1OC(C)/C(C)=N/O (stereo not drawn)
target.of.assay: D(2) dopamine receptor (Rattus norvegicus)
ED50: > 40 mg/kg
--
molecule: CCN(CC)CCNC(=O)c1cc(Cl)c(N)cc1OCC(O)CO (stereo not drawn)
target.of.assay: D(2) dopamine receptor (Rattus norvegicus)
ED50: > 40 mg/kg
--
molecule: CCN(CC)CCNC(=O)c1cc(Cl)c(N)cc1O
target.of.assay: D(2) dopamine receptor (Rattus norvegicus)
ED50: > 40 mg/kg
--
molecule: CCN(CC)CCNC(=O)c1cc(Cl)c(N)cc1OCC1COC(C)(C)O1 (stereo not drawn)
target.of.assay: D(2) dopamine receptor (Rattus norvegicus)
ED50: > 40 mg/kg
--
molecule: CCN(CC)CCNC(=O)c1cc(Cl)c(N)cc1OC1CCCC[C@@H]1OC (stereo partly drawn)
target.of.assay: D(2) dopamine receptor (Rattus norvegicus)
ED50: > 40 mg/kg
--
molecule: C=CCOc1cc(N)c(Cl)cc1C(=O)NCCN(CC)CC
target.of.assay: D(2) dopamine receptor (Rattus norvegicus)
ED50: > 40 mg/kg
--
molecule: CCN(CC)CCNC(=O)c1cc(Cl)c(N)cc1OC(C)C(C)O (stereo in doubt; 8h)
target.of.assay: D(2) dopamine receptor (Rattus norvegicus)
ED50: > 40 mg/kg
--
molecule: CCN(CC)CCNC(=O)c1cc(Cl)c(N)cc1OCC(=O)OC
target.of.assay: D(2) dopamine receptor (Rattus norvegicus)
ED50: > 40 mg/kg
--
molecule: CCN(CC)CCNC(=O)c1cc(Cl)c(N)cc1OCCOC
target.of.assay: D(2) dopamine receptor (Rattus norvegicus)
ED50: > 40 mg/kg
--
molecule: CCN(CC)CCNC(=O)c1cc(Cl)c(N)cc1OCCC(C)OC (stereo not drawn)
target.of.assay: D(2) dopamine receptor (Rattus norvegicus)
ED50: > 40 mg/kg
--
molecule: CCN(CC)CCNC(=O)c1cc(Cl)c(N)cc1OCC1OCCO1
target.of.assay: D(2) dopamine receptor (Rattus norvegicus)
ED50: > 40 mg/kg
--
molecule: CCN(CC)CCNC(=O)c1cc(Cl)c(N)cc1OCC(O)COC (stereo not drawn)
target.of.assay: D(2) dopamine receptor (Rattus norvegicus)
ED50: > 40 mg/kg
--
molecule: CCN(CC)CCN(C)C(=O)c1cc(Cl)c(N)cc1OC
target.of.assay: D(2) dopamine receptor (Rattus norvegicus)
ED50: > 40 mg/kg
--
molecule: CCN(CC)CCNC(=O)c1cc(Cl)c(N)cc1OC[C@@H](C)O (stereo in doubt; 8f)
target.of.assay: D(2) dopamine receptor (Rattus norvegicus)
ED50: > 40 mg/kg
--
molecule: CCCOc1cc(N)c(Cl)cc1C(=O)NCCN(CC)CC
target.of.assay: D(2) dopamine receptor (Rattus norvegicus)
ED50: > 40 mg/kg
--
molecule: C=CCC(Oc1cc(N)c(Cl)cc1C(=O)NCCN(CC)CC)C(C)=O (stereo not drawn)
target.of.assay: D(2) dopamine receptor (Rattus norvegicus)
ED50: > 40 mg/kg
--
molecule: CCN(CC)CCNC(=O)c1cc(Cl)c(N)cc1OC1CCCC1=O (stereo not drawn)
target.of.assay: D(2) dopamine receptor (Rattus norvegicus)
ED50: > 40 mg/kg
--
molecule: CCN(CC)CCNC(=O)c1cc(Cl)c(N)cc1OCc1ccccn1
target.of.assay: D(2) dopamine receptor (Rattus norvegicus)
ED50: > 40 mg/kg
--
molecule: CCN(CC)CCNC(=O)c1cc(Cl)c(N)cc1OC1CCCCC1=O (stereo not drawn)
target.of.assay: D(2) dopamine receptor (Rattus norvegicus)
ED50: > 40 mg/kg
--
molecule: CCC(Oc1cc(N)c(Cl)cc1C(=O)NCCN(CC)CC)C(C)=O (stereo not drawn)
target.of.assay: D(2) dopamine receptor (Rattus norvegicus)
ED50: > 40 mg/kg
--
molecule: CCN(CC)CCNC(=O)c1cc(Cl)c(N)cc1OCC1=NCCN1
target.of.assay: D(2) dopamine receptor (Rattus norvegicus)
ED50: > 40 mg/kg
--
molecule: CCN(CC)CCNC(=O)c1cc(Cl)c(N)cc1OCC1(C)CO1 (stereo not drawn)
target.of.assay: D(2) dopamine receptor (Rattus norvegicus)
ED50: > 40 mg/kg

This collection of values is drawn from ChEMBL document CHEMBL1124174.
